B1: TPR t1 (parent)
chain: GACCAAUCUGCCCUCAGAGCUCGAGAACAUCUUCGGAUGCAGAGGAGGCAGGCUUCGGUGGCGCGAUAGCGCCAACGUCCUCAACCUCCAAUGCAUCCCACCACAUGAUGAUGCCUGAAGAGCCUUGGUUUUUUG

variants of: B1; experiment: polymerase ribozyme fitness, log enrichment relative to wild type (log ratio); higher = more active; in vitro selection for triplet polymerase activity
Please use the following polymerase ribozyme fitness (log ratio) ranges when assigning a class: bucket 1 (below -4), bucket 2 (-4 to below -2), bucket 3 (-2 or more)

Class label required: G19U G48U C79A C85A G120C U130C
bucket 1

Category lookup for the variant G44A A121C U125G
bucket 3

Bin? A27C A50C A84C G120A
bucket 2

Bin this entry: G23U G120A
bucket 1

Entry C11U C15A C101G belongs to which category?
bucket 2

For this variant, which bin applies? C13G G48C G63U A105C
bucket 1

Just checking, what class would you give U55C G60A C94A G113U here?
bucket 1

Bin? C53U U78A A103U A121C U132C
bucket 1

Band of C3U C13G A90U ?
bucket 3

In plain terms, what class is A6U C49U C53U A84C ?
bucket 3

Which bin, given its polymerase ribozyme fitness (log ratio), does G71C C104A occupy?
bucket 2

Which class does G45U G60C U125G U133A fall in?
bucket 3

Lab log: C31U A68G — assign polymerase ribozyme fitness (log ratio) category
bucket 1

Field: class (polymerase ribozyme fitness (log ratio)) — entry: U96C U126C
bucket 3

Any idea which band C11A A46C G61U C94A is in?
bucket 2

Which polymerase ribozyme fitness (log ratio) category applies to A91G C104A here?
bucket 2
